B1: DUSP5 (parent)
chain: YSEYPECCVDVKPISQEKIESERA

- Variants of: B1
- Experiment: protein stability index of a GFP-peptide fusion (GPS, HEK-293T) (PSI 1-6); higher = more stable;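 also: lentivirally expressed fusions sorted by FACS into six bins by GFP to DsRed ratio, PSI derived from sequencing read proportions per bin multiplied by bin number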
- Run parameters: c terminus: a fixed tail appended
Would you mind labelling by protein stability index? At or over 4 is label 1, under is label 0.

Example results:
Y1V
label 1
P13V
label 0
I19Q
label 1
P5D
label 1

*Q* Hello, I need to know if C7K has measured protein stability index not below 4. Thanks!
*A* label 1

*Q* Hello, I need to know if E17F has measured protein stability index not below 4. Thanks!
*A* label 0

Values from the supplement of paper PMC10567573
